ASSAYED TARGET: Endothelin receptor type B (Homo sapiens)
Sequence (P24530 whole entry): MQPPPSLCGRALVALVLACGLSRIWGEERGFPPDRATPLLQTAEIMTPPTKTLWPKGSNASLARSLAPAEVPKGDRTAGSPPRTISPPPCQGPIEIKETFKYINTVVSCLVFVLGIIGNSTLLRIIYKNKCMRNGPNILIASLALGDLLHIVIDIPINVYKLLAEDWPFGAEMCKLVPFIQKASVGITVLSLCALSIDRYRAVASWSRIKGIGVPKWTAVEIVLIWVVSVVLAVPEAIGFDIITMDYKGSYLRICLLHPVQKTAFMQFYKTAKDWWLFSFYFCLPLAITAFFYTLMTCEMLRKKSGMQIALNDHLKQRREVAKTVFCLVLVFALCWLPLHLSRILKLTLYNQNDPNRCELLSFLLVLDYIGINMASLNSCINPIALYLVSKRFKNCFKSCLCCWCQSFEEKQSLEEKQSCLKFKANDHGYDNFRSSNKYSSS
PROTOCOL DESCRIPTION: Binding ability determined by the displacement of [125 I]ET-3 from the human Endothelin B receptor
ATTRIBUTE MEASURED: IC50 (nM)
Answers are plain numbers, in nM.

Worked examples, 6 compounds total:
1. CCCCC(NC(=O)CN1C[C@H](c2ccc3c(c2)OCO3)[C@@H](C(=O)O)[C@@H]1c1ccc(OC)cc1)c1ccccc1 (stereo partly drawn)
5
2. Cc1ccccc1C(NC(=O)CN1C[C@H](c2ccc3c(c2)OCO3)[C@@H](C(=O)O)[C@@H]1c1ccc(OCCOC(C)C)cc1)c1ccccc1C.O=C(O)C(F)(F)F (stereo in doubt; form 1)
1.9
3. COc1ccc([C@H]2[C@H](C(=O)O)[C@@H](c3ccc4c(c3)OCO4)CN2CC(=O)NC(c2ccccc2)C(C)C)cc1 (stereo partly drawn)
2.1
4. COc1ccc([C@H]2[C@H](C(=O)O)[C@@H](c3ccc4c(c3)OCO4)CN2CC(=O)NC2c3ccccc3-c3ccccc32)cc1
600
5. CCC(NC(=O)CN1C[C@H](c2ccc3c(c2)OCO3)[C@@H](C(=O)O)[C@@H]1c1ccc(OC)cc1)c1ccccc1 (stereo partly drawn)
2.6
6. COc1ccc([C@H]2[C@H](C(=O)O)[C@@H](c3ccc4c(c3)OCO4)CN2CC(=O)NC(c2ccccc2)c2ccccc2)cc1
8.1

Give IC50 for each of the items listed below.
1. COCCOc1ccc([C@H]2[C@H](C(=O)O)[C@@H](c3ccc4c(c3)OCO4)CN2CC(=O)NC(c2ccccc2)C(C)(C)C)cc1 (stereo partly drawn)
2. COc1ccc([C@H]2[C@H](C(=O)O)[C@@H](c3ccc4c(c3)OCO4)CN2CC(=O)NC(c2ccccc2)c2cc(C)ccc2C)cc1 (stereo partly drawn)

1. 2.2
2. 31

----------
ASSAYED TARGET: Endothelin receptor, ET-A/ET-B (Homo sapiens) (UniProt P24530+P25101)
Sequence (P24530 whole entry, looked up): as the sequence (P24530 whole entry) above
Sequence (P25101 whole entry, looked up): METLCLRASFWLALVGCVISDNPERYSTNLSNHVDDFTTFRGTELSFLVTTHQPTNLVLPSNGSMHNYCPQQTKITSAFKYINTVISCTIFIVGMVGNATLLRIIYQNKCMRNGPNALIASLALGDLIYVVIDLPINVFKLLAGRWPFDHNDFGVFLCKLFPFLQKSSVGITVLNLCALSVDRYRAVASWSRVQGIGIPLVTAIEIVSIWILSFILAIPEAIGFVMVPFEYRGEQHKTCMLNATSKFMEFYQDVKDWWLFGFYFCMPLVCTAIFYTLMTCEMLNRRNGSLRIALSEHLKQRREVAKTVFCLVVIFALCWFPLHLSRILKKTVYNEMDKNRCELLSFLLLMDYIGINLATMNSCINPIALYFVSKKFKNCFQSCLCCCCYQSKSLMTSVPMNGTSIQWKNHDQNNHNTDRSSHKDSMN
PROTOCOL DESCRIPTION: Ratio of binding affinity towards human endothelin receptor type A to human endothelin receptor type B (hETA to hETB)
Assay type: protein assay
Lab note: compare Ratio against 0.9. Equal or greater, write Condition met. Smaller, write Condition not met.

1. COc1ccc([C@H]2[C@H](C(=O)O)[C@@H](c3ccc4c(c3)OCO4)CN2CC(=O)NC(c2ccccc2)C(C)C)cc1 (some centres undefined)
Condition not met
2. COc1ccc([C@H]2[C@H](C(=O)O)[C@@H](c3ccc4c(c3)OCO4)CN2CC(=O)NCC(c2ccccc2)c2ccccc2)cc1
Condition met
3. COc1ccc([C@H]2[C@H](C(=O)O)[C@@H](c3ccc4c(c3)OCO4)CN2CC(=O)NC(c2ccccc2)c2ccccc2C)cc1 (some centres undefined)
Condition met
4. COc1ccc([C@H]2[C@H](C(=O)O)[C@@H](c3ccc4c(c3)OCO4)CN2CC(=O)NC(CC(C)C)c2ccccc2)cc1 (some centres undefined)
Condition met
5. COc1ccc([C@H]2[C@H](C(=O)O)[C@@H](c3ccc4c(c3)OCO4)CN2CC(=O)NC(c2ccccc2)c2cc(C)ccc2C)cc1 (some centres undefined)
Condition met

Check this compound for Ratio at or above 0.9: CCc1ccccc1C(NC(=O)CN1C[C@H](c2ccc3c(c2)OCO3)[C@@H](C(=O)O)[C@@H]1c1ccc(OC)cc1)c1ccccc1CC
Condition met

Check this compound for Ratio at or above 0.9: COc1ccc([C@H]2[C@H](C(=O)O)[C@@H](c3ccc4c(c3)OCO4)CN2CC(=O)NC(c2ccccc2)C(C)(C)C)cc1 (some centres undefined)
Condition met

Check this compound for Ratio at or above 0.9: COc1ccc([C@H]2[C@H](C(=O)O)[C@@H](c3ccc4c(c3)OCO4)CN2CC(=O)NC(Cc2ccccc2)c2ccccc2)cc1 (some centres undefined)
Condition not met

Check this compound for Ratio at or above 0.9: COc1ccc([C@H]2[C@H](C(=O)O)[C@@H](c3ccc4c(c3)OCO4)CN2CC(=O)NC2c3ccccc3-c3ccccc32)cc1
Condition met

Check this compound for Ratio at or above 0.9: CC(C)OCCOc1ccc([C@H]2[C@H](C(=O)O)[C@@H](c3ccc4c(c3)OCO4)CN2CC(=O)NC(c2ccccc2)C(C)(C)C)cc1 (some centres undefined)
Condition met

Check this compound for Ratio at or above 0.9: COCCOc1ccc([C@H]2[C@H](C(=O)O)[C@@H](c3ccc4c(c3)OCO4)CN2CC(=O)NC(c2ccccc2)C(C)(C)C)cc1 (some centres undefined)
Condition met

Check this compound for Ratio at or above 0.9: CCCCC(NC(=O)CN1C[C@H](c2ccc3c(c2)OCO3)[C@@H](C(=O)O)[C@@H]1c1ccc(OC)cc1)c1ccccc1 (some centres undefined)
Condition not met

Check this compound for Ratio at or above 0.9: COc1ccc([C@H]2[C@H](C(=O)O)[C@@H](c3ccc4c(c3)OCO4)CN2CC(=O)NC(c2ccccc2)(c2ccccc2)c2ccccc2)cc1
Condition not met
